Target: anti-CD28 Fab (SEQ ID NOs: 202, 203)
Sequence (VH, as listed by the source, chain 1 of 2): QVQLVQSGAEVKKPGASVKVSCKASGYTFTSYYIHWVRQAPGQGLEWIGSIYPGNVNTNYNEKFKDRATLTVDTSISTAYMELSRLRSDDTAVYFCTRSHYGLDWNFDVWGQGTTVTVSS
Sequence (VL, as listed by the source, chain 2 of 2): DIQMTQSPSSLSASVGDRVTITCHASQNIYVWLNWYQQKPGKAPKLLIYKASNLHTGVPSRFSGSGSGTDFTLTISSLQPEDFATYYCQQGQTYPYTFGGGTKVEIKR
Assay: phage ELISA, Fab on plate;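 note: ELISA of crude clonal phage supernatants on the plate, wells preloaded with CD28 antigen or only blocking buffer, captured phage read out via HRP-linked anti-M13 antibody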
Listed below: Anti-CD28 Fab signal values for each entry.
The answer should be written as a number, with no unit following it.

Reference set (3 entries):
> print(dat)
                        binder  test.result
1  TCAAGANWHWPWCF [Phage-1114]         1.46
2  TCSAGATYSWPYCL [Phage-1186]         1.22
3  SCAAVFSFNWPECF [Phage-1216]         1.01

What the record says about TCAAGATYTWPTCF [Phage-1108] : Anti-CD28 Fab signal is 1.48

What the record says about TCAAGVPYKWPPCL [Phage-1169] : Anti-CD28 Fab signal is 1.29

What the record says about SCAAGATYSWPACL [Phage-1177] : Anti-CD28 Fab signal is 1.25

What the record says about TCSAGATYMWPACF [Phage-1120] : Anti-CD28 Fab signal is 1.44

What the record says about SCSAGATYEWPYCF [Phage-1113] : Anti-CD28 Fab signal is 1.47

What the record says about TCSAGATYSWPACL [Phage-1137] : Anti-CD28 Fab signal is 1.41

What the record says about ICAAGFIWSWPACF [Phage-1101] : Anti-CD28 Fab signal is 1.51

What the record says about SCSAGAMYQWPLCF [Phage-1118] : Anti-CD28 Fab signal is 1.44
